Where do the numbers come from? From the supplement of paper PMC10567573.

B1: CIB1 (parent)
chain: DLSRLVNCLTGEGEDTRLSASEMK

variants of: B1; assay: protein stability index of a GFP-peptide fusion (GPS, HEK-293T) (PSI 1-6); higher = more stable; conditions: c terminus: a fixed tail appended;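 also: lentivirally expressed fusions sorted by FACS into six bins by GFP to DsRed ratio, PSI derived from sequencing read proportions per bin multiplied by bin number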
Below, each entry is listed with its recorded protein stability index.
Kindly provide the number alone.

Worked cases, answers included:
INSERT INTO measurements (mutant_designation, value) VALUES
  ('E12Q', 2.43),
  ('T10S', 3.17),
  ('R17I', 2.97);

protein stability index for `G11C` is 3.16

Input `R4N` . Output protein stability index: 2.39

Input `G13N` . Output protein stability index: 2.71

Measured protein stability index, `D1P` : 4.33

The variant `M23C` showed protein stability index equal to 2.85

Lab note: measured protein stability index of `G13K` was 3.45

// sample `E22P` , its protein stability index was 4.12

# protein stability index (variant: `R4I` ) is 2.48

The recorded protein stability index for `T10C` is 4.11

Data point: `L5C` ; protein stability index = 3.35

Reported protein stability index ( `L9H` ) = 3.78

According to the records, this variant `S21P` displays protein stability index of 3.5

Sample `M23K` ; protein stability index observed: 4.14
